System: HEK-293T
Measurement Notes: Multiplex assay against HEK293T
Format: toxicity, cell-based
Protocol Conditions: human, 12 h, 1 µM, compound concentration 1 uM, replicate 1
Short version: Population Fragmented Nuclei (%) at least 20% is t, less is f.

Solved entries:
{"Compound": "CCn1c(-c2nonc2N)nc2cnc(Oc3cccc(NC(=O)c4ccc(OCCN5CCOCC5)cc4)c3)cc21 [GSK-269962A]", "Assigned Label": "f"}
{"Compound": "Cc1cn(-c2cc(NC(=O)c3ccc4c(c3)CN(c3cncnc3)C[C@@H]4C)cc(C(F)(F)F)c2)cn1", "Assigned Label": "t"}
{"Compound": "Cc1nc(Cc2cccc(C(F)(F)F)c2)sc1-c1ccc(C(N)=O)nc1 [TP-024n]", "Assigned Label": "f"}
{"Compound": "CC(C)N1CCC(C)(C)c2cc(C#Cc3ccc(C(=O)O)cc3)ccc21", "Assigned Label": "f"}
{"Compound": "COc1ccc(NS(=O)(=O)c2sc3ccc(Cl)cc3c2C)cc1N1CCNCC1.Cl", "Assigned Label": "f"}
{"Compound": "c1ccc2oc(-c3csc(C4CCN(Cc5nc6ncccc6[nH]5)CC4)n3)cc2c1", "Assigned Label": "t"}
{"Compound": "Nc1nc2c(c(N3CCNCC3)n1)CCC1=C2[C@@H]2CCCC[C@@H]2O1", "Assigned Label": "f"}
{"Compound": "Cl.Cl.NC1(c2ccc(-c3nc4ccn5c(=O)[nH]nc5c4cc3-c3ccccc3)cc2)CCC1", "Assigned Label": "f"}

Field: next compound
**Q:** Does Population Fragmented Nuclei (%) meet or surpass 20% for CC(C)(C)c1cnc(CSc2cnc(NC(=O)C3CCNCC3)s2)o1 [BMS-387032] ?
**A:** t
